experimental.protocol: In vitro metabolic stability assay in human plasma
Assay type: in vitro ADME
condition.set: 37°C, LC-MS/MS, read-out: t1/2 Human plasma
endpoint.name: half-life

Could you tell me which half-life is on file for O=C(CCCCCCC(=O)Nc1nc2ccc(OC(F)(F)F)cc2s1)NO ?
> 2 h

----------
Tested on: HeLa cell nuclear extract
experimental.protocol: In vitro HDAC inhibition fluorescent assay, total HDAC
Assay type: biochemical
condition.set: Boc-Lys(acetyl)-AMC substrate
endpoint.name: IC50 (nM)
State just the number; it will be interpreted in nM.

Could you tell me which IC50 is on file for O=C(CCCCCCC(=O)Nc1nc2ccc(OC(F)(F)F)cc2s1)NO ?
120
